System: NALL-1;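 also: ALL cell lines in 384-well plates, five doses spanning 10,000-fold, each plate scaled between vehicle and 100 µmol/L benzalkonium chloride controls, sDSS an adapted area-under-curve metric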
assay-overview: selective drug sensitivity score (sDSS, relative to normal bone marrow) (sDSS (score)); higher = more potent and effective on the cell line relative to normal bone marrow cells
reported-conditions: 72 h
Exercise: state measured selective drug sensitivity score for each of the compounds provided.
Answer with the value's number alone.

Noted for COc1cc2c(cc1-c1c(C)noc1C)ncc1[nH]c(=O)n([C@H](C)c3ccccn3)c12 [I-BET151] (top concentration 10000 nM) : its selective drug sensitivity score reads -0.14

Noted for Clc1ccccc1C(c1ccccc1)(c1ccccc1)n1cccn1 [TRAM-34] (top concentration 1000 nM) : its selective drug sensitivity score reads -0.08

Noted for CCCCC(=O)OCC(=O)[C@]1(O)Cc2c(O)c3c(c(O)c2[C@@H](O[C@H]2C[C@H](NC(=O)C(F)(F)F)[C@H](O)[C@H](C)O2)C1)C(=O)c1c(OC)cccc1C3=O [Valrubicin] (top concentration 5000 nM) : its selective drug sensitivity score reads -1.82
